Values were extracted from patent EP0188781A1.

Test: Concentration in serum after subcutaneous administration to mice, bioassay with Escherichia coli
Type: in vivo
Conditions: mouse, sc, 25 mg/kg subcutaneously, 1/2 hour
Measured property: concentration at 0.5 h

# example entries with known answers
Molecule | Measured
CCN1CCN(C(=O)NC(C(=O)N[C@@H]2C(=O)N3C(C(=O)O)=C(CSc4nc(=O)c(O)nn4C)[C@H](C)O[C@H]23)c2csc(N)n2)C(=O)C1=O (single isomer, unassigned) | 25000 ng/mL
CO/N=C(\C(=O)N[C@@H]1C(=O)N2C(C(=O)O)=C(CSc3nc(=O)c(O)nn3C)[C@H](C)O[C@H]12)c1csc(N)n1 | 41000 ng/mL

As a next step, examine the molecule that follows.
Exercise: Return value of concentration at 0.5 h for input CCN1CCN(C(=O)NC(C(=O)N[C@@H]2C(=O)N3C(C(=O)O)=C(CSc4nc(=O)c(O)nn4C)CO[C@H]23)c2csc(N)n2)C(=O)C1=O (single isomer, unassigned) , no commentary.
Key: 32000 ng/mL
